molecular target: UniProtKB P08922
Sequence (P08922 whole entry): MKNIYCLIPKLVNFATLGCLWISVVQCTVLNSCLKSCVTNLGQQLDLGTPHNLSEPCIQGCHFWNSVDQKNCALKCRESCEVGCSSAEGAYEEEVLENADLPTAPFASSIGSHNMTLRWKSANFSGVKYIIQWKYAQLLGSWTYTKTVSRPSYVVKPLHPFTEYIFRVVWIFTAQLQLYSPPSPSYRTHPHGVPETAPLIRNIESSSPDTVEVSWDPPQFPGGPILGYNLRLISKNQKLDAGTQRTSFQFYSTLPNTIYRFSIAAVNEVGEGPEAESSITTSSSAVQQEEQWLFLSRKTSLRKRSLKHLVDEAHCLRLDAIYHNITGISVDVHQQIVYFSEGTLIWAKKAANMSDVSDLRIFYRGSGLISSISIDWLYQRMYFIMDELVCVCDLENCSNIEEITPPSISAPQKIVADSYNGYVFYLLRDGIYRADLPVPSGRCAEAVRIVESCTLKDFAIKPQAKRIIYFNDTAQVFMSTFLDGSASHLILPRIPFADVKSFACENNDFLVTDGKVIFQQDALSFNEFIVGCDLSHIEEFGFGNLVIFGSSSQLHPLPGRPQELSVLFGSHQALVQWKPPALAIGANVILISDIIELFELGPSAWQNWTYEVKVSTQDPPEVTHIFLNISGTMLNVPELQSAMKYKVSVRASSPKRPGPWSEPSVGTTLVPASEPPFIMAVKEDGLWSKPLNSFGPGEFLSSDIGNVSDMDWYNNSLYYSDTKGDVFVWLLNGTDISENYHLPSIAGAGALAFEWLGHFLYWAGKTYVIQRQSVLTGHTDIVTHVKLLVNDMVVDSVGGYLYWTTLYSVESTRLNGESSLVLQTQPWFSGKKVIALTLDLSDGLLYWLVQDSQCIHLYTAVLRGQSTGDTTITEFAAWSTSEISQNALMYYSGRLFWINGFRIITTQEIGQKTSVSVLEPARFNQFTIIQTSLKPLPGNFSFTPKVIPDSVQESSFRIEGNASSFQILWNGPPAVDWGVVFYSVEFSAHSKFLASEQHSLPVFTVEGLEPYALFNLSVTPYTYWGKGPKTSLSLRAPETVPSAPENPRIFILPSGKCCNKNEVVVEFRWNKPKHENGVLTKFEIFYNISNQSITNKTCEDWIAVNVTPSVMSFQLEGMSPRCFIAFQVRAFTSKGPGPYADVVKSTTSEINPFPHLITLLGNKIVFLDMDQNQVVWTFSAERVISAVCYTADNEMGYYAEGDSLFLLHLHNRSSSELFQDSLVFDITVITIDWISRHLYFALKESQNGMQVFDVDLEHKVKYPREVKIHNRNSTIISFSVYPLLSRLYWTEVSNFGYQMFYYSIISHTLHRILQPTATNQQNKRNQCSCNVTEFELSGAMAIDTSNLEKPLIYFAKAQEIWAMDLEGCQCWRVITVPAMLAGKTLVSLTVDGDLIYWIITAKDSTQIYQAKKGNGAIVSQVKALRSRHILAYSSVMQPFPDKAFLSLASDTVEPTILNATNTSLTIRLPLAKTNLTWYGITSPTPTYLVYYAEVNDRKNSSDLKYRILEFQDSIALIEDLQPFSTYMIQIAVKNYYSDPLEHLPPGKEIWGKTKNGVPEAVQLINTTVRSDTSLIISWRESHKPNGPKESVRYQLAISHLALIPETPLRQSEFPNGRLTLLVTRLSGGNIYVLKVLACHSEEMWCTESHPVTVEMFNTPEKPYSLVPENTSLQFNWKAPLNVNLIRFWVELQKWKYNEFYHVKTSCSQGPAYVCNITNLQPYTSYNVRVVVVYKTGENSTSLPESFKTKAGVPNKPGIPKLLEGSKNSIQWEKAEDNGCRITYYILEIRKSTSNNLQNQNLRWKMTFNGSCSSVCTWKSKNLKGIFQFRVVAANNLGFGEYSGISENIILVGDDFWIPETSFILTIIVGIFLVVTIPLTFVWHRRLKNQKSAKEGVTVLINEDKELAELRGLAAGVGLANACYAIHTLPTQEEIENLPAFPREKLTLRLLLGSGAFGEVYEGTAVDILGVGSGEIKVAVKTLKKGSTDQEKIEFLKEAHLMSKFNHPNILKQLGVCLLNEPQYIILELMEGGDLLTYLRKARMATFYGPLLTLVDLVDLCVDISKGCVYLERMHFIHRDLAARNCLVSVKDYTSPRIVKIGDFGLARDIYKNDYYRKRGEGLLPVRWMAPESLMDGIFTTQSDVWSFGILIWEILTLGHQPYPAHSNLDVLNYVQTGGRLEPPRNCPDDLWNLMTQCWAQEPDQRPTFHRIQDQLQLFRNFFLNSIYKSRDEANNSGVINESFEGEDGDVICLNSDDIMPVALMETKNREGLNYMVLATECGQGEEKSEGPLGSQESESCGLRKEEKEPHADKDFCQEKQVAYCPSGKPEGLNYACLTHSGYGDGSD
ENDPOINT_NAME: IC50

Query block: Given `COc1ccc(/C=C\c2cc(OC)c(OC)c(OC)c2)cc1NC(=O)CCC(=O)N[C@@H](CCCNC(=N)N)C(=O)O` , state its recorded IC50.
Result block: > 10 µM

----------
assay: Half life in Sprague-Dawley rat at 1.5 mg/kg, po measured upto 24 hrs by LC-MS/MS analysis; type: ADME, organism-based; details: in vivo
ENDPOINT_NAME: half-life (h)
Expressed in h, but write only the number.

Query block: Given `COc1ccc(/C=C\c2cc(OC)c(OC)c(OC)c2)cc1NC(=O)CCC(=O)N[C@@H](CCCNC(=N)N)C(=O)O` , state its recorded half-life.
Result block: 13.8

----------
biological target: Dual specificity protein kinase TTK (Homo sapiens)
Sequence (P33981 whole entry): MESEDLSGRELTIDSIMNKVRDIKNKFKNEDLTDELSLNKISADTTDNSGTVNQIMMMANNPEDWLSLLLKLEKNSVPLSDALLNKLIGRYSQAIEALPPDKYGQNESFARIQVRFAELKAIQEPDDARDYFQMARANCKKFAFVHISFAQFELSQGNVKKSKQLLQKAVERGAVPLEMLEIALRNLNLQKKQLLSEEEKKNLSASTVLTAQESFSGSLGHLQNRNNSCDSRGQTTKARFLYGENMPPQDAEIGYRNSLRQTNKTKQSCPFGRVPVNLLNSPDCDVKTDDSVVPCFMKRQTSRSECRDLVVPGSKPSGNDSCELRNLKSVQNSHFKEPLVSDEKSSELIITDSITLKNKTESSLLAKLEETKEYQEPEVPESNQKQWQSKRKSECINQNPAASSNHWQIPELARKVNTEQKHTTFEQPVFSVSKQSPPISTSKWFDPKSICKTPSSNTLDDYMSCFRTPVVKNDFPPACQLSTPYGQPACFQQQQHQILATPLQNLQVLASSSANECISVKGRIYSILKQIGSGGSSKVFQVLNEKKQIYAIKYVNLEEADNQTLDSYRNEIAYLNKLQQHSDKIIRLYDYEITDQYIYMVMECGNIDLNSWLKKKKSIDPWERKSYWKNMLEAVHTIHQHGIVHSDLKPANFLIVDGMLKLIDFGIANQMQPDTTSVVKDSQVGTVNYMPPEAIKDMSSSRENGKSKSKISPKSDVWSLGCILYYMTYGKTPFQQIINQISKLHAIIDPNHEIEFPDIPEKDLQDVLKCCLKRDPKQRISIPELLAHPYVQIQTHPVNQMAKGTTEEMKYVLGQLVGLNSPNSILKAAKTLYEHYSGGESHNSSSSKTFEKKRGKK
ENDPOINT_NAME: IC50

Query block: Given `COc1ccc(/C=C\c2cc(OC)c(OC)c(OC)c2)cc1NC(=O)CCC(=O)N[C@@H](CCCNC(=N)N)C(=O)O` , state its recorded IC50.
Result block: > 10 µM

----------
target: Phosphatidylinositol 4,5-bisphosphate 3-kinase catalytic subunit alpha isoform (Homo sapiens, UniProt P42336); assay: Inhibition of PIK3CA (unknown origin)
ENDPOINT_NAME: IC50

Query block: Given `COc1ccc(/C=C\c2cc(OC)c(OC)c(OC)c2)cc1NC(=O)CCC(=O)N[C@@H](CCCNC(=N)N)C(=O)O` , state its recorded IC50.
Result block: > 10 µM

----------
target: Cyclin-dependent kinase 9 (Homo sapiens, UniProt P50750)
Sequence (P50750 whole entry): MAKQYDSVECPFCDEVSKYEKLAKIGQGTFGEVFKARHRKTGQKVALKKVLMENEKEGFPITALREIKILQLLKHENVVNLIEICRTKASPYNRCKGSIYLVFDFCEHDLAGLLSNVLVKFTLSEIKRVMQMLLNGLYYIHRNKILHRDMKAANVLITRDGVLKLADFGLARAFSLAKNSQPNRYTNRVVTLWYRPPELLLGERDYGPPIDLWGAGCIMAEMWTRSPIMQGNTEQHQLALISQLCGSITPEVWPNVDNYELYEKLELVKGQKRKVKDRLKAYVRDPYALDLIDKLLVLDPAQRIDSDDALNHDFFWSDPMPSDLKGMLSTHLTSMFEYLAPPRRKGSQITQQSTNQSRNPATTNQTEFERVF
ENDPOINT_NAME: IC50

Query block: Form field - read-out: IC50; system: Cyclin-dependent kinase 9 (Homo sapiens, UniProt P50750); submitted item: `COc1ccc(/C=C\c2cc(OC)c(OC)c(OC)c2)cc1NC(=O)CCC(=O)N[C@@H](CCCNC(=N)N)C(=O)O`
Result block: > 10 µM

----------
target: Cyclin-dependent kinase 5 (Homo sapiens, UniProt Q00535)
Sequence (Q00535 whole entry): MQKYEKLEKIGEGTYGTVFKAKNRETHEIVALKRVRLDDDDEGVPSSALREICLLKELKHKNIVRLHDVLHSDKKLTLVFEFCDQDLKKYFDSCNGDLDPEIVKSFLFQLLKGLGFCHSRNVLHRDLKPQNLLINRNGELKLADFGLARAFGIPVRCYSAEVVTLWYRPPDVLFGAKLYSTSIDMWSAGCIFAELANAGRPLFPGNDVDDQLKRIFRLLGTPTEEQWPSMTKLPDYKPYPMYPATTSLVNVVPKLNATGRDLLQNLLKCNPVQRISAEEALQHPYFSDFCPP
pIC50: −log10 of the molar value.
ENDPOINT_NAME: pIC50

Query block: Form field - read-out: pIC50; system: Cyclin-dependent kinase 5 (Homo sapiens, UniProt Q00535); submitted item: `COc1ccc(/C=C\c2cc(OC)c(OC)c(OC)c2)cc1NC(=O)CCC(=O)N[C@@H](CCCNC(=N)N)C(=O)O`
Result block: < 5.00

----------
molecular target: Tyrosine-protein kinase Blk (Homo sapiens)
pIC50: −log10 of the molar value.
ENDPOINT_NAME: pIC50

Query block: Given `COc1ccc(/C=C\c2cc(OC)c(OC)c(OC)c2)cc1NC(=O)CCC(=O)N[C@@H](CCCNC(=N)N)C(=O)O` , state its recorded pIC50.
Result block: < 5.00

----------
target: CDK6/cyclin D3 (Homo sapiens, UniProt Q00534); experiment: Inhibition of CDK6/Cyclin D3 (unknown origin)
Sequence (P30281 whole entry): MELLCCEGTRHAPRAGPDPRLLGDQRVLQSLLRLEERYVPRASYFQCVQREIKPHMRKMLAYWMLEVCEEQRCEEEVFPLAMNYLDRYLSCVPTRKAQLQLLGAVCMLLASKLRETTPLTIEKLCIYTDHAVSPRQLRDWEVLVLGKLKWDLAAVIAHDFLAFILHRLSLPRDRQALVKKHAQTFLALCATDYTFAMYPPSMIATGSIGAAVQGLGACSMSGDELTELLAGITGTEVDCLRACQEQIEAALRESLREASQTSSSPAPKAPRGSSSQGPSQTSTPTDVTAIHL
Sequence (Q00534 whole entry): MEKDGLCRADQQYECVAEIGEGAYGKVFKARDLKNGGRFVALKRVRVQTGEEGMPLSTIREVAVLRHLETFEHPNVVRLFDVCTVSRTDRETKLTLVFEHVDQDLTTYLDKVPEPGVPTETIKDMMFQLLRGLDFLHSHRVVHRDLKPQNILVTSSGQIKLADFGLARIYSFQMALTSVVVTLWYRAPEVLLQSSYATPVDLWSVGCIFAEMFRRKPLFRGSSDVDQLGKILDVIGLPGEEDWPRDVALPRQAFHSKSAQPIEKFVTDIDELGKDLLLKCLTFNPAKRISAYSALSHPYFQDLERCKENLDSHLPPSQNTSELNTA
pIC50: −log10 of the molar value.
ENDPOINT_NAME: pIC50

Query block: Form field - read-out: pIC50; system: CDK6/cyclin D3 (Homo sapiens, UniProt Q00534); submitted item: `COc1ccc(/C=C\c2cc(OC)c(OC)c(OC)c2)cc1NC(=O)CCC(=O)N[C@@H](CCCNC(=N)N)C(=O)O`
Result block: < 5.00

----------
molecular target: Tubulin (Homo sapiens) (UniProt P68371+Q9H4B7+P0DPH7+P68366+Q13509+Q71U36+P04350+Q3ZCM7+P07437+P68363+Q9BQE3+Q6PEY2+Q13885+Q9BVA1+Q9BUF5); experiment: Inhibition of tubulin polymerization (unknown origin) at 12 uM by spectrophotometric analysis relative to control; format: protein-complex assay
Please map values of inhibition to classes as shown: low class: < 40%; middle class: ≥ 40% and < 60%; high class: ≥ 60%

Query block: For the record `COc1cc(-c2cc(-n3c(S)nc4ccccc4c3=O)[nH]n2)cc(OC)c1OC` , report the class its inhibition corresponds to.
Result block: low class

Query block: Another compound to check: `COc1cc([C@@H]2CC(=O)c3cnc(N4CCN(CCO)CC4)nc3C2)cc(OC)c1OC`
Result block: middle class

Query block: Another compound to check: `COc1cc(C(=O)/C=C/Nc2cccc(C)c2)cc(OC)c1OC`
Result block: middle class

Query block: Another compound to check: COc1ccc2c(c1)OC(c1cc(OC)c(OC)c(OC)c1)CC2=O (stereo unspecified)
Result block: middle class

Query block: Another compound to check: COc1cc(C2OC2C(=O)c2ccccc2)cc(OC)c1OC (stereo unspecified)
Result block: low class

Query block: Another compound to check: `COc1cc(-c2cc(C(F)(F)F)n3ncc(C(=O)NCC(C)C)c3n2)cc(OC)c1OC`
Result block: low class

Query block: Another compound to check: `COc1cc(C(=O)/C=C/c2c[nH]c3ccc(Br)cc23)cc(OC)c1OC`
Result block: high class

Query block: Another compound to check: `COc1cc(O)c(/C=C/C(=O)c2cc(OC)c(OC)c(OC)c2)c(OC)c1`
Result block: high class

Query block: Another compound to check: COc1cc2c(cc1OC)C(c1cc(OC)c(OC)c(OC)c1)OCC2 (stereo unspecified)
Result block: high class

Query block: Another compound to check: COc1cc(C(O)c2cc3c(cc2CO)OCO3)cc(OC)c1OC (stereo unspecified)
Result block: high class

Query block: Another compound to check: `COc1ccc(/C=C\c2cc(OC)c(OC)c(OC)c2)cc1NC(=O)CCC(=O)N[C@@H](CCCNC(=N)N)C(=O)O`
Result block: high class

----------
assay: Cytotoxicity against human PrEC cells assessed as inhibition of cell viability incubated for 48 hrs by MTT assay; type: toxicity, cell-based
ENDPOINT_NAME: IC50 at 48 h (nM)
Expressed in nM, but write only the number.

Query block: Given `COc1ccc(/C=C\c2cc(OC)c(OC)c(OC)c2)cc1O` , state its recorded IC50 at 48 h.
Result block: 80

----------
target: RAC-gamma serine/threonine-protein kinase (Homo sapiens)
Sequence (Q9Y243 whole entry): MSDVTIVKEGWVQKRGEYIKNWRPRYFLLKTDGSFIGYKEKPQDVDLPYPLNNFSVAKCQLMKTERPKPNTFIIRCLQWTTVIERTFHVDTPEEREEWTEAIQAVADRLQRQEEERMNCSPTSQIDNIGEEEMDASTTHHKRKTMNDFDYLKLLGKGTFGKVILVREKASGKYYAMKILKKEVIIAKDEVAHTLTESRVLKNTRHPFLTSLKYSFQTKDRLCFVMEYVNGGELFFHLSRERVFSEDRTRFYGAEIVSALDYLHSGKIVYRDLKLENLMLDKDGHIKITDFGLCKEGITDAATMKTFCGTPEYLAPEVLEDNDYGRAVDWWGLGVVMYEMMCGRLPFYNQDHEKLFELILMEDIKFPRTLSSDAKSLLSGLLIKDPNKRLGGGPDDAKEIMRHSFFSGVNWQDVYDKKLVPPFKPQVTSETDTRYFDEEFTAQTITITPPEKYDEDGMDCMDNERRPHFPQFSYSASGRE
ENDPOINT_NAME: IC50

Query block: Form field - read-out: IC50; system: RAC-gamma serine/threonine-protein kinase (Homo sapiens); submitted item: `COc1ccc(/C=C\c2cc(OC)c(OC)c(OC)c2)cc1NC(=O)CCC(=O)N[C@@H](CCCNC(=N)N)C(=O)O`
Result block: > 10 µM

----------
molecular target: Tubulin; assay: Inhibition of tubulin polymerization (unknown origin) by spectrophotometric analysis; assay type: protein-complex assay, Homo sapiens
ENDPOINT_NAME: log10(IC50) (log10 of the value in µM)
The figures below represent log10 of IC50, where IC50 is stated in µM.

Query block: Given `COc1ccc(/C=C\c2cc(OC)c(OC)c(OC)c2)cc1NC(=O)CCCCC(=O)N[C@@H](CCCNC(=N)N)C(=O)O` , state its recorded log10(IC50).
Result block: 0.85

Query block: Another compound to check: `COc1ccc(/C=C\c2cc(OC)c(OC)c(OC)c2)cc1NC(=O)/C=C/C(=O)N[C@@H](CCCNC(=N)N)C(=O)O`
Result block: 0.18

Query block: Another compound to check: `COc1ccc(/C=C\c2cc(OC)c(OC)c(OC)c2)cc1NC(=O)CCCC(=O)N[C@@H](CCCNC(=N)N)C(=O)O`
Result block: 0.75

Query block: Another compound to check: `COC(=O)[C@H](CCCNC(=N)N)NC(=O)CCCC(=O)Nc1cc(/C=C\c2cc(OC)c(OC)c(OC)c2)ccc1OC`
Result block: 0.90

Query block: Another compound to check: `COC(=O)[C@H](CCCNC(=N)N)NC(=O)/C=C/C(=O)Nc1cc(/C=C\c2cc(OC)c(OC)c(OC)c2)ccc1OC`
Result block: 0.62

Query block: Another compound to check: `COc1ccc(/C=C\c2cc(OC)c(OC)c(OC)c2)cc1NC(=O)CCC(=O)N[C@@H](CCCNC(=N)N)C(=O)O`
Result block: -0.15

Query block: Another compound to check: `COC(=O)[C@H](CCCNC(=N)N)NC(=O)CCCCC(=O)Nc1cc(/C=C\c2cc(OC)c(OC)c(OC)c2)ccc1OC`
Result block: 0.97

----------
Target: Ankyrin repeat and protein kinase domain-containing protein 1 (Homo sapiens, UniProt Q8NFD2)
Sequence (Q8NFD2 whole entry): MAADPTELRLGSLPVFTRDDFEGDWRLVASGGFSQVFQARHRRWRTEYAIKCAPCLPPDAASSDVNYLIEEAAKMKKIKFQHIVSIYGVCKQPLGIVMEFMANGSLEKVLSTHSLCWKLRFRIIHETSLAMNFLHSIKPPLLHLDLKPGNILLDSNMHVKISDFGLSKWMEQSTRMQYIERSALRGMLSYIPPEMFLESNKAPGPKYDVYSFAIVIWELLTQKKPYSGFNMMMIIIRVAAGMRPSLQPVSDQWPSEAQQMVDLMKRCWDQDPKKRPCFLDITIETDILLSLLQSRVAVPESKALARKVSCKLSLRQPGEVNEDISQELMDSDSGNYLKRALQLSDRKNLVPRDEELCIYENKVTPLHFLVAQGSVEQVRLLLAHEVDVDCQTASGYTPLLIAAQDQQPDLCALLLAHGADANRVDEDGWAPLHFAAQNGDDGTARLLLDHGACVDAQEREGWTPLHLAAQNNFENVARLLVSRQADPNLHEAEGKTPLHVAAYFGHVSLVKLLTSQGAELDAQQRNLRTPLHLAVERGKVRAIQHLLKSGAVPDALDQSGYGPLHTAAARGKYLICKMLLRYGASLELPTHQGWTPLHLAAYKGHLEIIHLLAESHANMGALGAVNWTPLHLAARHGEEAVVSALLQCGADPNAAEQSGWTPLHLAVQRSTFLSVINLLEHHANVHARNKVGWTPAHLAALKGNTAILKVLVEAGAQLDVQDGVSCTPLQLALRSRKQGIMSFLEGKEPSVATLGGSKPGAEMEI
ENDPOINT_NAME: IC50

Query block: Given `COc1ccc(/C=C\c2cc(OC)c(OC)c(OC)c2)cc1NC(=O)CCC(=O)N[C@@H](CCCNC(=N)N)C(=O)O` , state its recorded IC50.
Result block: > 10 µM
